# System: Mycobacterium tuberculosis
# test method notes: Percent inhibitory activity against Mycobacterium tuberculosis H37Rv Strain at 6.25 ug/mL
# Assay type: functional
So I've got a bunch of compounds here, and I need their inhibition at 6.25 µg/mL values.
Answers are plain numbers, in %.

These solved cases illustrate the format of a correct answer.
CCCCCCCCCCSc1ncnc2c1ncn2CC(=O)OC(C)(C)C = 99
Oc1nc(SCc2ccccc2F)c2[nH]cnc2n1 = 50

Parameter requested: inhibition at 6.25 µg/mL. Apply to each item below.
1. CCCCCCCCCCSc1ncnc2c1ncn2CC(=O)Oc1ccccc1
2. CCOC(=O)Cn1cnc2c(Sc3ccc4ccccc4c3)ncnc21
3. Cc1ccccc1Sc1[nH]c(Cl)nc2ncnc1-2

Marked response:
[0, 100, 72]

====

Would you kindly list MIC90 for each of these molecules?
# System: Mycobacterium tuberculosis
# test method notes: Inhibitory activity against growth of Mycobacterium tuberculosis H37Rv Strain
# Type: functional

// known answers, use as guide
CCCCCCCCCCSc1ncnc2c1ncn2CC(=O)OC(C)(C)C = 3.13 µg/mL
Cc1ccc(Sc2[nH]cnc3ncnc2-3)cc1 = > 12.5 µg/mL
Oc1nc(SCc2ccc(Cl)cc2)c2[nH]cnc2n1 = > 6.25 µg/mL

For every listed record, write down its MIC90.
1. CCCCCCCCCCSc1ncnc2c1ncn2CC(=O)OCC
2. Oc1nc(SCc2ccccc2)c2[nH]cnc2n1

Marked response:
["1.56 µg/mL", "> 6.25 µg/mL"]

Exam item: Would you kindly share the measured MIC90 for c1ccc2nc(Sc3[nH]cnc4ncnc3-4)ccc2c1 ?
Marked response: > 12.5 µg/mL

====

Give MIC90 for every item shown.
# Tested on: Mycobacterium tuberculosis
# test method notes: Inhibitory activity against growth of Mycobacterium tuberculosis H37Rv Strain
# Format: functional

Some solved entries appear below for comparison.
CCOC(=O)Cn1cnc2c(SCc3ccccc3)nc(O)nc21 = > 6.25 µg/mL
O=[N+]([O-])c1ccccc1CSc1nc(O)nc2nc[nH]c12 = > 6.25 µg/mL
c1ccc2cc(Sc3[nH]cnc4ncnc3-4)ccc2c1 = > 12.5 µg/mL

Hello, I would appreciate it if you could give MIC90 for each entry below.
1. CCCCCCCCCCSc1[nH]c(Cl)nc2ncnc1-2
2. CCOC(=O)Cn1cnc2c(SCc3cc(Cl)ccc3F)nc(O)nc21
3. CCOC(=O)Cn1cnc2c(Sc3ccc4ccccc4c3)ncnc21

Marked response:
> 6.25 µg/mL
> 6.25 µg/mL
> 6.25 µg/mL

For every listed record, write down its MIC90.
1. CCOC(=O)Cn1cnc2c(Sc3cccc(C)c3)ncnc21
2. CCOC(=O)Cn1cnc2c(Sc3ccc(C)cc3)ncnc21
3. COc1cccc(CSc2[nH]c(O)nc3ncnc2-3)c1
4. Clc1nc(Sc2ncccn2)c2[nH]cnc2n1
5. Clc1nc(Sc2cccc3ccccc23)c2[nH]cnc2n1

Marked response:
1. > 6.25 µg/mL
2. > 6.25 µg/mL
3. > 6.25 µg/mL
4. > 6.25 µg/mL
5. > 6.25 µg/mL

Provide each entry's MIC90 from the list below.
1. CCCCCCCCCCSc1ncnc2c1ncn2CC(=O)OCc1ccccc1
2. Oc1nc(SCc2ccc(F)cc2)c2[nH]cnc2n1
3. Cc1ccccc1Sc1[nH]c(Cl)nc2ncnc1-2
4. Oc1nc(SCc2ccccc2F)c2[nH]cnc2n1
5. CCCCCCCCCCSc1ncnc2c1ncn2CC(N)=O

Marked response:
["> 6.25 µg/mL", "> 6.25 µg/mL", "> 6.25 µg/mL", "> 6.25 µg/mL", "> 6.25 µg/mL"]

Please supply MIC90 for each of the following items, keeping them in order.
1. CCOC(=O)Cn1cnc2c(SCc3ccccc3F)nc(O)nc21
2. Oc1nc(SCc2ccccc2Cl)c2[nH]cnc2n1
3. CCCCCCCCCCCSc1[nH]cnc2ncnc1-2
4. Clc1ccc(Sc2[nH]cnc3ncnc2-3)cc1

Marked response:
> 6.25 µg/mL
> 6.25 µg/mL
3.13 µg/mL
> 12.5 µg/mL
